- Target Desc: T1, human CD84 on cells (human) (UniProt Q9UIB8)
- T1 sequence (looked up): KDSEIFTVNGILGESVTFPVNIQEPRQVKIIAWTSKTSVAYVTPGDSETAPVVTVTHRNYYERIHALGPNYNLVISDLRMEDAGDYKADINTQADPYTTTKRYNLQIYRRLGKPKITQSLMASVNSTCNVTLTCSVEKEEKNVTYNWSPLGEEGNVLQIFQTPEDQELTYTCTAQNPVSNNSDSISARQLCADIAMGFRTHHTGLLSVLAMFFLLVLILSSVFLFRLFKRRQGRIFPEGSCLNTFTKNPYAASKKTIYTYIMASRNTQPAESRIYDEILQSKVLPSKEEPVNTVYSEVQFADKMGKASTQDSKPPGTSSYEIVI
- Test Name: flow cytometry, hybridoma supernatant at equal antibody concentration, monocytes
Measured Endpoint: Monocyte binding
Numeric answer plus unit only.

Solved entries:
Binder | Monocyte binding
GYCD84.3.298 (antibody, mouse IgG1, V domains shown) VH: QVTLKESGPGILQPSQTLSLTCSFSGFSLSTSGMGVGWIRQPSGKGLEWLAHIWWDDVKRYNPALRSRLTISKDTSSSQVFLNIASVDTADTATYYCTRIAVTYFFDFWGQGTTLTVSS VL: DIQMTQSPASLSASVGETVTITCRASENIFSSFAWYQQKRGRSPQLLVYNARTLAEGVPSRFSGSGSGTQFSLKINSLQPEDFGTYFCQHHYASPFTFGSGTELGVK | 53.9%
GYCD84.1-226 (antibody, mouse IgG1, V domains shown) VH: QVQLQQPGAELVKPGTSVKLSCKASGYNFTRYWINWVKLRPGQGLEWIGDIYPGSGSTNYNEKFKSKATLTVDTSSSTAYMQLSRLASEDSALYYCARDTTIAYWGQGTLVTVSA VL: DIVLTQSPTSLAVSLGQRATISCRASQSVTTSRYSYMHWYQQKPGQPPKLLIKFASNLESGVPARFSGSGSGTDFTLNIHPVEEEDTATYYCQHSWEIPYTFGGGTKLEIK | 76.1%

Please go through the list and note Monocyte binding for each binder.
1. GYCD84.2.27 (antibody, mouse IgG1, V domains shown) VH: QVTLKESGPGILQPSQTLSLTCSFSGFSLTTSGMGVGWIRQPSGKGLEWLAHIWWDDVKRYNPALKSRLTISKDTSSSQVFLKIASVDTADTASYYCARMSTSYYFDYWGQGTTLTVSS VL: DIVMTQSHKFMSTSLGDRVSISCKASQSLFTSVAWYQQKPGQSPKLLIYSASYRYTGVPDRFTGSGSGTDFTFTISSVQAEDLAVYYCQQHYSSPFTFGSGTKLGIK
2. GYCD84.3.89 (antibody, mouse IgG1, V domains shown) VH: EVKLLESGGGLVQPGGSLKLSCAASGFGFSRSWMSWVRQAPGKGLEWIGEINPDSSTINYTPSLKDKFIISRDNAKNTLFLQMSKVRSEDTALYYCATFYDGYSIYWYFDVWGAGTTVTVSS VL: DVLMTQTPLSLPVSLGDQASISCRSSQSIVHSNGDTYLEWYLQKPGQSPKLLIYKVSNRFSGVPDRFSGSGSGTDFTLKISRVEAEDLGVYYCFQGSHVPRTFGGGTKLEIK

[A]
1: 77.5%; 2: 72.7%
